B1: HDV Ribozyme (parent)
chain: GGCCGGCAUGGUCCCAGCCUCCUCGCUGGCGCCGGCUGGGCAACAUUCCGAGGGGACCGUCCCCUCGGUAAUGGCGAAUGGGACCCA

variants of: B1; assay: self-cleavage, relative activity (ratio to wild type); higher = more cleavage; co-transcriptional
Assign class by self-cleavage: not lower than 0.3 means rule met; lower than 0.3 means rule not met.

Is self-cleavage for G54A G59U at or above 0.3?
rule met

Is self-cleavage for A43U C44G at or above 0.3?
rule met

Is self-cleavage for G2U U9G at or above 0.3?
rule not met

Is self-cleavage for G1A G74U at or above 0.3?
rule not met

Is self-cleavage for A8C G28A at or above 0.3?
rule not met

Is self-cleavage for G50U G59C at or above 0.3?
rule met

Is self-cleavage for C14U A42C at or above 0.3?
rule not met

Is self-cleavage for G31U G81A at or above 0.3?
rule not met

Is self-cleavage for C7U U23A at or above 0.3?
rule met

Is self-cleavage for A70C at or above 0.3?
rule met

Is self-cleavage for C15G C26A at or above 0.3?
rule met

Is self-cleavage for C26U G29A at or above 0.3?
rule met

Is self-cleavage for U20G C85U at or above 0.3?
rule not met

Is self-cleavage for G31U A77U at or above 0.3?
rule not met

Is self-cleavage for G28C A70C at or above 0.3?
rule not met

Is self-cleavage for G5C G55U at or above 0.3?
rule not met

Is self-cleavage for A42G U65A at or above 0.3?
rule met

Is self-cleavage for C7G C24G at or above 0.3?
rule not met

Is self-cleavage for G17U A51U at or above 0.3?
rule met

Is self-cleavage for U9A G59C at or above 0.3?
rule met

Is self-cleavage for C3A U37G at or above 0.3?
rule not met

Is self-cleavage for G1U U20A at or above 0.3?
rule not met

Is self-cleavage for A45C G76C at or above 0.3?
rule met

Is self-cleavage for C33A A56U at or above 0.3?
rule met

Is self-cleavage for G40A G80C at or above 0.3?
rule not met

Is self-cleavage for C18A C33A at or above 0.3?
rule not met

Is self-cleavage for A42U C64A at or above 0.3?
rule met

Is self-cleavage for C41A G50C at or above 0.3?
rule met

Is self-cleavage for G10U U37G at or above 0.3?
rule not met

Is self-cleavage for G38C C48U at or above 0.3?
rule not met

Is self-cleavage for G39C U46G at or above 0.3?
rule not met

Is self-cleavage for G52A U72A at or above 0.3?
rule met

Is self-cleavage for U37A C41A at or above 0.3?
rule not met

Is self-cleavage for C14G A78G at or above 0.3?
rule met

Is self-cleavage for G2C A8U at or above 0.3?
rule not met

Is self-cleavage for G1A G34A at or above 0.3?
rule not met

Is self-cleavage for A77C C84G at or above 0.3?
rule met

Is self-cleavage for G38A A77C at or above 0.3?
rule not met

Is self-cleavage for G2A C13U at or above 0.3?
rule not met

Is self-cleavage for G6C C64U at or above 0.3?
rule not met

Is self-cleavage for A45U U60C at or above 0.3?
rule met

Is self-cleavage for G28A U60A at or above 0.3?
rule not met

Is self-cleavage for A56C C61G at or above 0.3?
rule met

Is self-cleavage for G40U G73C at or above 0.3?
rule not met

Is self-cleavage for C30U G82U at or above 0.3?
rule not met

Is self-cleavage for A8C C26A at or above 0.3?
rule met
